# credit: ChEMBL document CHEMBL4229410

- MEASURED_TARGET: cAMP-dependent protein kinase catalytic subunit alpha (Homo sapiens, UniProt P17612)
- ASSAY_TEXT: Binding affinity to human PKACalpha (G10 to F351 residues) expressed in bacterial expression system by KINOMEscan assay
pKd: −log10 of the molar value.
PROPERTY_NAME: pKd

Measured pKd, CC(C)CN(C(=O)c1cccnc1)c1c2ccccc2c(=O)n2c1[nH]c1ccccc12 : ≤ 5.30

----------
- MEASURED_TARGET: Cyclin-dependent kinase 19 (Homo sapiens, UniProt Q9BWU1)
- Sequence (Q9BWU1 whole entry): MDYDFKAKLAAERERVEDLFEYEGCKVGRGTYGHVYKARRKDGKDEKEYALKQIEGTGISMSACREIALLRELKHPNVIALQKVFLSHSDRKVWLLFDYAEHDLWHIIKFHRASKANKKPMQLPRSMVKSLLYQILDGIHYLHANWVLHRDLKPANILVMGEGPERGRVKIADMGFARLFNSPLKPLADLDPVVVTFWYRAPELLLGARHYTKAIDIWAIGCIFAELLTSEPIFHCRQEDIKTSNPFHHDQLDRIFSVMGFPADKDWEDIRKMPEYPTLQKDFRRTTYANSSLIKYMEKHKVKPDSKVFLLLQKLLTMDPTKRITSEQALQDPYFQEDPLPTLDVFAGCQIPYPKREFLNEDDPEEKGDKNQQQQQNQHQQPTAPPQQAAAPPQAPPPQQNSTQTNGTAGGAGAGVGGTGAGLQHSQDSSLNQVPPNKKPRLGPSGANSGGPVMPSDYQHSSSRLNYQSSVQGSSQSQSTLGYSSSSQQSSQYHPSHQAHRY
PROPERTY_NAME: Kd

Measured Kd, CC(C)CN(C(=O)c1cccnc1)c1c2ccccc2c(=O)n2c1[nH]c1ccccc12 : ≥ 5 µM
